// log10(koff) lookup, one value per entry
Biological target: T1, HCV Core 134-171-TT Peptide (hepatitis C virus (HCV-1 numbering) …)
T1 construct: also called ALRZ-9 peptide
Assay: SPR, captured mAb, peptide analyte
A value of 2 here means koff of 100 in s⁻¹, since values are log10.

Sample answers from the record:
HCV 208A-877 (antibody, V domains shown) VH: QLQQSGPELVKPGASVKISCKTSGYTFTENAMHWVKQSRGKSLEWIGGVNPNNGDTVYTQKFKGKATLTVAKSSSTAYMELRTMTCEESTVYYCASREPDFFDYWGQGSSVTVSS VL: QIVLTQSPAIMSVSPGEKVSMTCSASSSVTYMHWYQQKSGTSPKRWIYDTSELASGVPARFSGSGSGTTYSLTISSMEAEDAATYYCQQWSNKPLTFGAGTKLELKR | -2.62
HCV 208A-293 (antibody, V domains shown) VH: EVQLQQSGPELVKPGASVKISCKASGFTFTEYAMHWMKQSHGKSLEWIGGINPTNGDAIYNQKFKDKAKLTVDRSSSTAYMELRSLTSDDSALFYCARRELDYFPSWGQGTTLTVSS VL: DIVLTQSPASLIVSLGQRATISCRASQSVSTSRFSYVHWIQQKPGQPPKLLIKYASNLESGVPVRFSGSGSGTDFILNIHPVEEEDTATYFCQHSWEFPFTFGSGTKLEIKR | -3.64
HCV 208A-134 (antibody, V domains shown) VH: QGQMQQSGAELAKPGASVKLSCKTSGFTFSSSYISWLKQKPGQSLEWIAWIYAGTGNTNYNQKFTDKAQLTVDTSSSTAYMQLSSLTTEDSAIYYCAISGTGFTYWGQGTLVTVSA VL: EVLMTQSPLSLPVSLGDQASISCRSSQSLEHTNGNTYLEWFLQRPGQPPKLLIYKVSSRFSGVPDRFSGSGSGTDFTLKISRVEAEDLGVYYCFQGSHVPFTFGSGTKLAIKR | -4.42
HCV 208B-556 (antibody, V domains shown) VH: QLQQSGPVLVKPGASVMISCKTSGYTFTENAMHWVKQSHGKSLEWIGGVNPNNGDTIFNQKFKGKATLTVDKSSSTAFMEFRSLTSEESTVYYCVRRELDFFDYWGQGTSVTVSS VL: DIVLTQSPASLAVSLGQRATISCRASQSVSTSRYSYMHWYQQKPGQPPKLLIKYASNLESGVPARFSGSGSGTDFTLNIHPVAEEDTATYYCQHSWEFPFTFGSGTKLEIKR | -3.22
HCV 208B-672 (antibody, V domains shown) VH: EVKLVESGGSLVQPGGSLKLSCAASGFNFNTYAMSWVRQTPEKRLEWVAYISNGGGNTYYVDTVKGRFTISRDNAKNTLYLRMSSLKSEDTAMYYCARHGLYWGYSMDYWGQGTSVTVSS VL: DIQMTQSPSSLSASLGERVSLTCRASQDIGGSINWLQQEPDGTIKRLIYATSSLDSGVPKRFSGSRSGSDYSLTISSLESEDFVDYYCLQYASSPPTFGGGTKLEIKR | -3.47
HCV 208B-395 (antibody, V domains shown) VH: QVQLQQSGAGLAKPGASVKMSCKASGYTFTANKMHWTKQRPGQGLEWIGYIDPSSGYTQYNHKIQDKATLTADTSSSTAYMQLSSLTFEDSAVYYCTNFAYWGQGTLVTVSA VL: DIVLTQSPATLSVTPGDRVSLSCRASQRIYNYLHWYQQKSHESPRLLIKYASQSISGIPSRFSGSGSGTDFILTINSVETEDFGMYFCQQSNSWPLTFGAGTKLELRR | -3.33
HCV 208A-605 (antibody, V domains shown) VH: EVQLQQSGPELEKPGASVKISCKTSGYTFTEYAIHWVKQSHGMSLEWIGGINPSNGNAIYNQIFKDKATLTVDRSSSTAYMGLRSLTFGDSGVYFCVRRQLDFFDYWGQGASLTVSS VL: DIVVTQSPASLAVSLGQRATISCRASQSVSTSRYSYLHWYQQKPGQPPKLLIKYASNLESGVPARFSGSGSGTDFTLNIHPVGEEDTATYYCQHSWEFPFTFGSGTKLEIKR | -3.43
HCV 208B-547 (antibody, V domains shown) VH: QVQLQQSGAELAKPGASVKMSCKASGYTFTSNKMHWAKQRPGQGLEWIGYIDPSSGYTEYNQKIKDKATLTADKSSSTAYMQLSSLTSEDSAVYYCTNFAYWGQGTLVTVSA VL: EVVLTQSPAITAASLGQKVTITCRASSSVSYMHWYRQKSGTSPQPWIYEISTLASGVPTRFRASGSGTSYSLTISSMEAEDAAIYYCQQWNYPLTFGAGTKLELKR | -2.31

For the next question, use this binder.
q: Reported log10(koff) for HCV 208A-159 (antibody, V domains shown) VH: QLQQSGPAQVKPGASVMISCKTSGYTFTENAMHWVKQSHGKSLEWIGGVNPNNGDTIFNQKFKDKAALTVDKSSSTAFMELRSLTSEESTVYYCVRRELDFFDYWGQGTSVTVSS VL: DIVLTQSPASLAVSLGQRATISCRASQSVSTSRYSYVHWYQQKPGQPPKLLIKYAANLESGVPARFSGSGSGTDFTLNIHPVAEEDAAAYYCQHSWEFPFTFGSGTKLEIKR : what is it?
a: -3.19
